ASSAY_SYSTEM: BACE1 (Homo sapiens)
Construct: Human HEK293 cells which are stably transfected with a vector expressing a cDNA of the human APP wt gene (APP695); endogenous in cells
ASSAY_REMARKS: Cellular Aβ-lowering assay (Aβ40 ELISA, HEK293 cells expressing human APP695)
CONDITION_PARAMETERS: HEK293 cells stably expressing human APP695; Aβ40 in supernatant after 18-20 hrs
pIC50: −log10 of the molar value.

[
  {
    "COMPOUND": "C[C@@]1(c2cc(-c3cc(Cl)cc(Cl)c3)ccc2F)COCC(N)=N1",
    "pIC50": 6.29
  },
  {
    "COMPOUND": "CC1(c2cccc(-c3ccc(F)c(Cl)c3)c2)COCC(N)=N1 (stereo not drawn)",
    "pIC50": 6.19
  },
  {
    "COMPOUND": "CC1(c2cccc(C#Cc3ccc(Cl)cn3)c2)COCC(N)=N1 (stereo not drawn)",
    "pIC50": 6.52
  },
  {
    "COMPOUND": "CC1(c2cccc(-c3ccc(Cl)cn3)c2)COCC(N)=N1 (stereo not drawn)",
    "pIC50": 4.90
  },
  {
    "COMPOUND": "Cc1cc(C2(c3cccc(-c4cccnc4)c3)COCC(N)=N2)ccc1OC(F)F (stereo not drawn)",
    "pIC50": 7.22
  },
  {
    "COMPOUND": "CC1(c2cccc(-c3ccc4c(c3)OC(F)(F)O4)c2)COCC(N)=N1 (stereo not drawn)",
    "pIC50": 5.34
  },
  {
    "COMPOUND": "Cc1cc(C2(c3cccc(-c4cncc(Cl)c4)c3)COCC(N)=N2)ccc1OC(F)F (stereo not drawn)",
    "pIC50": 7.40
  },
  {
    "COMPOUND": "COc1cncc(-c2cccc(C3(c4ccc(OC(F)F)nc4)COCC(N)=N3)c2)c1 (stereo not drawn)",
    "pIC50": 7.52
  },
  {
    "COMPOUND": "CC1(c2cccc(-c3cccc(N)c3)c2)COCC(N)=N1 (stereo not drawn)",
    "pIC50": 5.51
  }
]

---

ASSAY_SYSTEM: recombinant human cathepsin E (Homo sapiens)
Sequence (P14091 54-396): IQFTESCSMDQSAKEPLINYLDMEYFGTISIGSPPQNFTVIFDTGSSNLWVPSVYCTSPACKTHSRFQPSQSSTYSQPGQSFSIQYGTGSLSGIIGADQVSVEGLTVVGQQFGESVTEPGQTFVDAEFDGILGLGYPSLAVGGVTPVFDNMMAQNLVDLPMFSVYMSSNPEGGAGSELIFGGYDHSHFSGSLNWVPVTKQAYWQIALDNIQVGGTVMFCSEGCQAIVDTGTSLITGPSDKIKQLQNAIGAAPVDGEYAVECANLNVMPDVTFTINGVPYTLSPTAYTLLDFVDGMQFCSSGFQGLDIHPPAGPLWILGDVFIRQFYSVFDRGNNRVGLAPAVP
ASSAY_REMARKS: Cathepsin E fluorescent substrate kinetic assay
CONDITION_PARAMETERS: pH 4.5, substrate MR121-[…]
Parameter: IC50. Scope: all listed entries.
PARAMETER_MEASURED: IC50 (µM)

[
  {
    "COMPOUND": "CC1(c2cccc(-c3cc(Cl)cc(Cl)c3)c2)COCC(N)=N1 (centres unmarked)",
    "ASSAY_SYSTEM": "recombinant human cathepsin E (Homo sapiens)",
    "PARAMETER_MEASURED": "IC50",
    "READOUT_UNIT": "µM",
    "VALUE": 3.8
  },
  {
    "COMPOUND": "CC1(c2cc(-c3cncnc3)ccc2F)COCC(N)=N1 (centres unmarked)",
    "ASSAY_SYSTEM": "recombinant human cathepsin E (Homo sapiens)",
    "PARAMETER_MEASURED": "IC50",
    "READOUT_UNIT": "µM",
    "VALUE": 13
  }
]

---

ASSAY_SYSTEM: cathepsin D (from human liver) (Homo sapiens)
Sequence (P07339 65-162 limits assumed): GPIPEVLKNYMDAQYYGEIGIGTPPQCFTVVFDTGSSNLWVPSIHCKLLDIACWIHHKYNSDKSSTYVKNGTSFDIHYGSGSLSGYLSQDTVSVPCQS
Sequence (P07339 169-412 limits assumed): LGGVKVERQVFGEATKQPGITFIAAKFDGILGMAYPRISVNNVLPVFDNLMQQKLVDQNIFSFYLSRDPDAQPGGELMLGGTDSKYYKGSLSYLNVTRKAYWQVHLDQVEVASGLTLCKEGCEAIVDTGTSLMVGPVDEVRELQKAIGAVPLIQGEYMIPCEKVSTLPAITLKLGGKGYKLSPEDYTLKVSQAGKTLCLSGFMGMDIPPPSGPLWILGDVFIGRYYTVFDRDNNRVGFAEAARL

[
  {
    "COMPOUND": "CC1(c2cccc(-c3cc(Cl)cc(Cl)c3)c2)COCC(N)=N1 (stereo not shown)",
    "ASSAY_SYSTEM": "cathepsin D (from human liver) (Homo sapiens)",
    "READOUT_UNIT": "µM",
    "IC50": 2.8
  }
]

---

ASSAY_SYSTEM: BACE1 (Homo sapiens, UniProt P56817)
Construct: Human HEK293 cells which are stably transfected with a vector expressing a cDNA of the human APP wt gene (APP695); endogenous in cells
Sequence (P56817 46-501): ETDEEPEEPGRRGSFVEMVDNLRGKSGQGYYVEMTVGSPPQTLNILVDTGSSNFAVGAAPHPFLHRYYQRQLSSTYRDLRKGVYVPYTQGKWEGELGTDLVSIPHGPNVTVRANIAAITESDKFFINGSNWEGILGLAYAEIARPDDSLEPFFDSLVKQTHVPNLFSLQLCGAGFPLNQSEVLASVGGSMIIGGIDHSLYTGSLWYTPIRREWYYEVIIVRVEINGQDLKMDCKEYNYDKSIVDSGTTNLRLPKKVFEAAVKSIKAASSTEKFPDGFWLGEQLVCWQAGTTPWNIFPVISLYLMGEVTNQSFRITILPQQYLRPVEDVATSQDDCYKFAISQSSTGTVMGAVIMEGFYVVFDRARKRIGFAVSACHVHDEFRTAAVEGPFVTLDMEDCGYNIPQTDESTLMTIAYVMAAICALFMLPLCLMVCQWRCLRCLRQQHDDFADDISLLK
ASSAY_REMARKS: Cellular Aβ-lowering assay (Aβ40 ELISA, HEK293 cells expressing human APP695)
CONDITION_PARAMETERS: HEK293 cells stably expressing human APP695; Aβ40 in supernatant after 18-20 hrs
pIC50: −log10 of the molar value. Counter-ions that a name gives are not always drawn.
Short version: pIC50 at least 6 is 1.0, less is 0.0.

[
  {
    "COMPOUND": "CC1(c2cccc(-c3cccc(OC(F)F)c3)c2)COCC(N)=N1 (stereo not drawn)",
    "CATEGORY_LABEL": 1.0
  },
  {
    "COMPOUND": "CC1(c2cccc(-c3cncc(C#N)c3)c2)COCC(N)=N1 (stereo not drawn)",
    "CATEGORY_LABEL": 1.0
  },
  {
    "COMPOUND": "COc1ccc2ccc(-c3cccc(C4(C)COCC(N)=N4)c3)cc2c1 (stereo not drawn) [Example 59, formate]",
    "CATEGORY_LABEL": 0.0
  }
]

---

ASSAY_SYSTEM: CYP2C9 (Homo sapiens, UniProt P11712)
Sequence (P11712 whole entry): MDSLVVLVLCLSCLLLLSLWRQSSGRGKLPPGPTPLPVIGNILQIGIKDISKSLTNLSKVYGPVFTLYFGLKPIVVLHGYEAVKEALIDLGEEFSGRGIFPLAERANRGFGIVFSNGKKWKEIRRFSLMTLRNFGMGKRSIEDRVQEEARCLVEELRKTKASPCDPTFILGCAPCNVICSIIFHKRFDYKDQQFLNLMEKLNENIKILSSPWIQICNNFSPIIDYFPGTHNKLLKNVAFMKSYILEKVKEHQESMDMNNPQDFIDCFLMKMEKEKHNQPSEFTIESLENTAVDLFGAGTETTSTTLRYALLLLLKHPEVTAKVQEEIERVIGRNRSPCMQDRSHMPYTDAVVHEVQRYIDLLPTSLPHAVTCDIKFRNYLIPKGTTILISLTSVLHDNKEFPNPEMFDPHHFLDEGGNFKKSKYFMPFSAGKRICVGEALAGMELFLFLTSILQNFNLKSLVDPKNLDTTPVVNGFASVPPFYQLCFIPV
PARAMETER_MEASURED: IC50 (µM)

[
  {
    "COMPOUND": "CC1(c2cccc(-c3cc(Cl)cc(Cl)c3)c2)COCC(N)=N1 (stereo not shown) [Example 32]",
    "READOUT_UNIT": "µM",
    "VALUE": 3.7
  }
]

---

ASSAY_SYSTEM: BACE2 (Rattus norvegicus, UniProt Q6IE75)
Construct: endogenous cellular BACE2 in the Ins1e rat cell line; endogenous in cells
Sequence (Q6IE75 63-514): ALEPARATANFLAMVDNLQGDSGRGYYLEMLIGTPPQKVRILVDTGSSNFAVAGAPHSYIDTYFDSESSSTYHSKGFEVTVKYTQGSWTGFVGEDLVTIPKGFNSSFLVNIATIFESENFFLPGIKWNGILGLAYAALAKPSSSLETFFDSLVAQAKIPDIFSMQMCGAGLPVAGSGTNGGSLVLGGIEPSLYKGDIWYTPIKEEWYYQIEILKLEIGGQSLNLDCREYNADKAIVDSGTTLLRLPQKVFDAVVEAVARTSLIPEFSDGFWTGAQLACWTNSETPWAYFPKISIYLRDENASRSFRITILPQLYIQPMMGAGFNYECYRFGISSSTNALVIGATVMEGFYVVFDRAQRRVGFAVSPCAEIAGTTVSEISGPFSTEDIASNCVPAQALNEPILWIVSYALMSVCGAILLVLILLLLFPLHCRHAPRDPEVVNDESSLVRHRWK
ASSAY_REMARKS: Assay for BACE inhibition by measuring cellular TMEM27 cleavage (INS-TMEM27 cells, ELISA)
CONDITION_PARAMETERS: INS-TMEM27 (INS1e-derived) cells; shed TMEM27 by ELISA
Description: Assay for BACE Inhibition by Measuring Cellular TMEM27 Cleavage: […] An ELISA assay (using a pair of mouse anti-human-TMEM27 antibodies, raised against the extracellular domain of TMEM27) is used for detection of TMEM27 in the culture medium. An EC50 for BACE2 inhibition is calculated using the ELISA readout for each inhibitor concentration with standard curve-fitting software such as XLFit for the Excel spreadsheet program.
pIC50: −log10 of the molar value.
Assign yes whenever pIC50 does not fall below 7; assign no whenever it does.

[
  {
    "COMPOUND": "Cc1cc(Cl)cc(-c2cccc(C3(C)COCC(N)=N3)c2)c1 (centres unmarked) [Example 9]",
    "CATEGORY_LABEL": "no"
  },
  {
    "COMPOUND": "CC1(c2cccc(-c3cc(Cl)cc(Cl)c3)c2)COCC(N)=N1 (centres unmarked) [Example 32]",
    "CATEGORY_LABEL": "no"
  },
  {
    "COMPOUND": "Cc1cc(C2(c3cccc(-c4cncc(Cl)c4)c3)COCC(N)=N2)ccc1OC(F)F (centres unmarked) [Example 46]",
    "CATEGORY_LABEL": "yes"
  },
  {
    "COMPOUND": "CC1(c2cccc(-c3nc4ccc(Cl)cc4o3)c2)COCC(N)=N1 (centres unmarked) [Example 49]",
    "CATEGORY_LABEL": "no"
  }
]

---

ASSAY_SYSTEM: BACE1 (Homo sapiens)
Construct: Human HEK293 cells which are stably transfected with a vector expressing a cDNA of the human APP wt gene (APP695); endogenous in cells
ASSAY_REMARKS: Cellular Aβ-lowering assay (Aβ40 ELISA, HEK293 cells expressing human APP695)
CONDITION_PARAMETERS: HEK293 cells stably expressing human APP695; Aβ40 in supernatant after 18-20 hrs
pIC50: −log10 of the molar value. Structures can show the parent of a compound that is named as a salt.
Listing of entries alongside the reported pIC50.
PARAMETER_MEASURED: pIC50

[
  {
    "COMPOUND": "CC1(c2cccc(-c3ccsc3)c2)COCC(N)=N1 (centres unmarked)",
    "ASSAY_SYSTEM": "BACE1 (Homo sapiens)",
    "VALUE": 5.97
  },
  {
    "COMPOUND": "CC1(c2cccc(-c3cncc(Cl)c3)c2)COCC(N)=N1 (centres unmarked)",
    "ASSAY_SYSTEM": "BACE1 (Homo sapiens)",
    "VALUE": 6.41
  },
  {
    "COMPOUND": "CC1(c2cccc(-c3ccccc3Cl)c2)COCC(N)=N1 (centres unmarked)",
    "ASSAY_SYSTEM": "BACE1 (Homo sapiens)",
    "VALUE": 5.97
  },
  {
    "COMPOUND": "CC1(c2cccc(-c3ccc(F)nc3F)c2)COCC(N)=N1 (centres unmarked)",
    "ASSAY_SYSTEM": "BACE1 (Homo sapiens)",
    "VALUE": 6.28
  },
  {
    "COMPOUND": "CC1(c2cccc(-c3ccnc(Cl)c3)c2)COCC(N)=N1 (centres unmarked) [Example 19, formate]",
    "ASSAY_SYSTEM": "BACE1 (Homo sapiens)",
    "VALUE": 5.97
  }
]

Sourced from patent US8399459B2
